Numbers sourced from PubChem BioAssay.

assay: viability of PTEN-null HCT116 cells – cell-based, HCT116 clonal line, CellTiter-Glo, pilot screen (AID 824); settings: HCT116 PTEN-deleted viability, 60 h, at 10 µM, stronger effect = lower value;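 note: 0% = 20 µM Hyamine control and 100% = vehicle cell control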
Inconclusive results are not listed.
METRIC: viability (%)

molecule=CC(C)CCN(C)C1CCN(S(=O)(=O)c2ccc(F)cc2)CC1 meas_value=98.5
molecule=COc1ccc2c(c1)CCc1cc(C(=O)N3CCN(c4ccc(N5CCOCC5)nn4)CC3)sc1-2 meas_value=59
molecule="COc1ccc(C)cc1NC(=O)C1CCCN(S(=O)(=O)c2c(C)noc2/C=C/N(C)C)C1 (stereo not drawn)" meas_value=100
molecule="Cn1c2c(c(=O)n(C)c1=O)C1c3ccccc3OCC1C(C)(C)O2 (stereo not drawn)" meas_value=96.1
molecule=COc1ccc(C/C(N)=N/n2cnnc2)cc1Cl meas_value=99.8
molecule=O=c1[nH]c2ccc(Br)cc2c(-c2ccccc2)c1N1CCOCC1 meas_value=75.2
molecule="CC(OC(=O)c1cc[n+]([O-])cc1)C(=O)Nc1ccc(Cl)cn1 (stereo not drawn)" meas_value=98.3
molecule="CCOC(=O)C1CCN(c2c(NC3CCCc4ccccc43)c(=O)c2=O)CC1 (stereo not drawn)" meas_value=96.8
molecule="Cn1ccnc1C(O)c1ccco1 (stereo not drawn)" meas_value=103
molecule=CCN(CC)C(=O)c1ccc(CS(=O)(=O)c2ccc(OC)cc2)o1 meas_value=95.3
molecule=Cn1c(Cn2c(=O)sc3ccccc32)nnc1SCC(=O)N1CCCC1 meas_value=99.3
molecule=CCOc1ccc(N(CC(=O)Nc2ccc(F)c(F)c2)S(=O)(=O)c2c(C)noc2C)cc1 meas_value=88.7
molecule="COc1ccc(C2CC(c3cccc(C)c3)n3ncnc3N2)cc1 (stereo not drawn)" meas_value=86.1
molecule="CCC(C(=O)N1CCN(c2cccc(Cl)c2)CC1)c1ccccc1 (stereo not drawn)" meas_value=63
molecule=CC(C)(C)SCCNC(=O)COc1ccc(Cl)cc1 meas_value=96.9
molecule="O=C(NCCN1C(=O)C2C3C=CC(C3)C2C1=O)Nc1ccccn1 (stereo not drawn)" meas_value=92.2
molecule="Cc1cccc(N2CC(c3nc4ccccc4n3C)CC2=O)c1C (stereo not drawn)" meas_value=95.2
molecule="CCOc1ccc(N(CC(=O)NC(C)CC)S(=O)(=O)c2c(C)noc2C)cc1 (stereo not drawn)" meas_value=93.1
molecule=CCOc1ccc(N(CC(=O)NCc2ccco2)S(=O)(=O)c2ccc(OC)c(OC)c2)cc1 meas_value=90.4
molecule=Cc1ccc(C)c(NC(=O)CSc2nnc(-c3ccccc3)o2)c1 meas_value=97.2
molecule=CCCCOCCCNC(=O)c1ccc(NC(C)=O)cc1 meas_value=97.4
molecule=CCOc1ccccc1Oc1c(C)oc2cc(OC(=O)N3CCOCC3)ccc2c1=O meas_value=103
molecule=Cc1cc(=O)oc2cc(OCC#N)ccc12 meas_value=96.1

###

assay: reduced viability of SK-BR-3 breast cancer cells – cell-based, 24 h, human, pilot screen (AID 572); conditions: SK-BR-3 viability, CellTiter-Glo luminescence, at 10 µM, stronger effect = lower value;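 note: compound exposure lasted between 18 and 24 h rather than exactly 24 h; 100% = carrier-treated control wells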
Response field label: string, one of 1 (yes) (viability strictly below 90%) or 0 (no).

compound=COc1cc(NC(=O)CC(C)C)ccc1NC(=O)c1ccco1 group="0 (no)"
compound=CCCCOCCCNC(=O)COc1ccccc1 group="0 (no)"
compound="CC1C(=O)C(C)C(c2cccs2)NC1c1cccs1 (stereo unspecified)" group="1 (yes)"
compound=COc1ccc(-c2cnc(SCC(=O)Nc3ccc4c(c3)OCO4)n2Cc2ccco2)cc1 group="0 (no)"
compound=COc1ccc(NC(=O)CSc2nnc(-c3ccccc3)n2N)cc1 group="0 (no)"

###

Listed next: entries and their corresponding Her2 level.
molecular target: Receptor tyrosine-protein kinase erbB-2 (Homo sapiens) (UniProt P04626); experiment: Her2 expression decrease, cell viability multiplex – SKBR3 breast tumor cells, AlphaScreen, ATP viability, primary screen (AID 461); conditions: 18-24 h, at 10 µM, stronger effect = lower value;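 note: lower value means less Her2 protein in the cells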
Sequence (P04626 whole entry, looked up): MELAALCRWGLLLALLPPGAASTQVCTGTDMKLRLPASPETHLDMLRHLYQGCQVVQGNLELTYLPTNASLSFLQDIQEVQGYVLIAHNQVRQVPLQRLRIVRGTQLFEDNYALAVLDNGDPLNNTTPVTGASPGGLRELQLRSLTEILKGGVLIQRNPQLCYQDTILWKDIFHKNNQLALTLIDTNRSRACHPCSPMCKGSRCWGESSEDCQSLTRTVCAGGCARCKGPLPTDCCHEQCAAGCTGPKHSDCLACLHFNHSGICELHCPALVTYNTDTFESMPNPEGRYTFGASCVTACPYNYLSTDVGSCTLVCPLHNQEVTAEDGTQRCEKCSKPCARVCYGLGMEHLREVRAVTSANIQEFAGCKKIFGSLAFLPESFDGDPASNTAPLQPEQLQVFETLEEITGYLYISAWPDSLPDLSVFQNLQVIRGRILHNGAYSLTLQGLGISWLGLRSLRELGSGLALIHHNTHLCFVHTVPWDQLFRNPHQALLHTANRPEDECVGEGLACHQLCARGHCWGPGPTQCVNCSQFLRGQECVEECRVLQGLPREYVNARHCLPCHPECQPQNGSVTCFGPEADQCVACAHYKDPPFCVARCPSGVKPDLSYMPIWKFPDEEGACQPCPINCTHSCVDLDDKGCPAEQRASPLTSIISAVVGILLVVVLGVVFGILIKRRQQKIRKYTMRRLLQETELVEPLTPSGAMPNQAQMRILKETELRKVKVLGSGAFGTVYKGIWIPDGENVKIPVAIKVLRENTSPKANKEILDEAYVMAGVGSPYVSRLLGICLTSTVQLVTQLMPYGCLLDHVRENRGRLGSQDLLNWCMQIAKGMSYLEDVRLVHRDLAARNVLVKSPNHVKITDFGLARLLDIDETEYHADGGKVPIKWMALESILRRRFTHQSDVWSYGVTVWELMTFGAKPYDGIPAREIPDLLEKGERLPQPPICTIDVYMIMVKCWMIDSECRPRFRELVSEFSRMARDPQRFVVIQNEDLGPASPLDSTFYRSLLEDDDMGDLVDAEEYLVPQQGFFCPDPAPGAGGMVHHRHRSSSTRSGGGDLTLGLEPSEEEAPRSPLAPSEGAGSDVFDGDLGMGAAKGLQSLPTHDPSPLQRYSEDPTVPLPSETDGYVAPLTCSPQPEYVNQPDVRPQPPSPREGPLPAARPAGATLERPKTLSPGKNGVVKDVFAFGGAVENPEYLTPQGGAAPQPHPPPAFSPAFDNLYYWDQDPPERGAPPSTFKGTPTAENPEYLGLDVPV
METRIC: Her2 level (%)

molecule=O=C(O)COc1ccc(S(=O)(=O)NCCc2ccccc2)cc1 endpoint_unit=% meas_value=103
molecule=CCc1nnc(NC(=O)COC(=O)CN2C(=O)c3ccccc3C2=O)s1 endpoint_unit=% meas_value=101
molecule=CCN1CCN(c2nc(C)nc3c2sc(=S)n3C)CC1 endpoint_unit=% meas_value=104
molecule="Cc1nnc(NC(=O)CSc2nc3c(c(=O)n2C)SC(C)C3)s1 (configuration not stated)" endpoint_unit=% meas_value=80
molecule=C=CCSc1nnc(Cc2c(C)[nH]c3ccccc23)o1 endpoint_unit=% meas_value=96
molecule=O=C(Nc1ccc2c(c1)OCCO2)NC1CCCCC1 endpoint_unit=% meas_value=98.5
molecule=COc1ccc(OCCSc2nc3ccccc3n2CC(=O)O)cc1 endpoint_unit=% meas_value=108
molecule=Cc1cccc(Cc2c(C)nc3nc(SCC(=O)NCc4ccco4)nn3c2C)c1 endpoint_unit=% meas_value=85.5
molecule="CC1CC(NC(=O)c2cnc3n(c2=O)CCS3)CC(C)(C)C1 (configuration not stated)" endpoint_unit=% meas_value=108
molecule="O=C(C1COc2ccccc2O1)N1CCCC1 (configuration not stated)" endpoint_unit=% meas_value=112
molecule=O=C(Oc1ccc2ccc(OC(=O)N3CCOCC3)cc2c1)N1CCOCC1 endpoint_unit=% meas_value=96
molecule=CCCCc1nc2ccccc2n2cc3c(=O)n(C)c(=O)n(C)c3c12 endpoint_unit=% meas_value=86
molecule=O=C(Nc1ccccc1)c1cnc2n(c1=O)CCS2 endpoint_unit=% meas_value=88
molecule=O=C(C1CCN(S(=O)(=O)c2cccc3cccnc23)CC1)N1CCN(C2CCCCC2)CC1 endpoint_unit=% meas_value=102
molecule=NC(=O)CSc1cn(CCNC(=O)c2cccs2)c2ccccc12 endpoint_unit=% meas_value=92.5
molecule="O=C1c2ccccc2C(Nc2ccc3c(c2)OCCO3)N1Cc1ccc2c(c1)OCO2 (configuration not stated)" endpoint_unit=% meas_value=94.5
molecule=O=P(O)(CCc1ccccc1)CN1CCCCC1 endpoint_unit=% meas_value=106
molecule=COc1ccc(OC)c(NC(=O)c2cn(C)c(=O)c3cc(OC)c(OC)cc23)c1 endpoint_unit=% meas_value=104
molecule=CCc1cc2c(=O)c(-c3nc4ccccc4[nH]3)coc2c(CN2CCC(C)CC2)c1O endpoint_unit=% meas_value=116
molecule="COc1ccccc1NC(=O)C1(C)Cc2ccccc2C(=O)O1 (configuration not stated)" endpoint_unit=% meas_value=108
molecule=C=CCn1c(=O)n(CCOC)c(=O)c2sc3ccccc3c21 endpoint_unit=% meas_value=105
molecule=CCOC(=O)N1CCC(NC(=O)C2CCN(S(=O)(=O)c3cccc4cccnc34)CC2)CC1 endpoint_unit=% meas_value=97.5
molecule="Cc1ccc2oc(=O)c3cnn(CC(=O)N4CCCCC4C)c3c2c1 (configuration not stated)" endpoint_unit=% meas_value=108
molecule=Cc1c(Cl)cccc1NC(=O)CCN1CCCCC1 endpoint_unit=% meas_value=92
molecule=Cc1nn(C(=O)c2ccc3c(c2)OCO3)c(N)c1-c1ccccc1 endpoint_unit=% meas_value=95
molecule="COCCCNC(=O)CC1Oc2ccccc2NC1=O (configuration not stated)" endpoint_unit=% meas_value=100
molecule="Cc1nc2sc(C(c3cccs3)N3CC(C)CC(C)C3)c(O)n2n1 (configuration not stated)" endpoint_unit=% meas_value=92
molecule=CCCCOC(=O)Cn1c(=O)oc2ccc(C)cc21 endpoint_unit=% meas_value=126
molecule=CCOc1ccc(S(=O)(=O)n2c(C)nc3ccccc32)cc1 endpoint_unit=% meas_value=112
molecule="CC1CN(c2c3c(nc4ncnn24)CCCC3)CC(C)O1 (configuration not stated)" endpoint_unit=% meas_value=88
molecule="Cc1ccc(C)c(C(=O)CC2(O)C(=O)N(C)c3ccccc32)c1 (configuration not stated)" endpoint_unit=% meas_value=113
molecule=Cc1cc(/C=N/n2cnnc2)c(C)n1-c1cccc(Cl)c1 endpoint_unit=% meas_value=92
molecule=COc1cccc(-c2cc(C(F)(F)F)nc(NCc3ccco3)n2)c1 endpoint_unit=% meas_value=94.5
molecule=COCCN(CCOC)c1ncnc2c1cnn2-c1ccccc1 endpoint_unit=% meas_value=99
molecule=Cn1c(=O)c(=O)n(C)c2cc(S(=O)(=O)CCC(=O)N3CCOCC3)ccc21 endpoint_unit=% meas_value=84
molecule="O=C1CC(c2cccnc2)c2cc3c(cc2N1)OCO3 (configuration not stated)" endpoint_unit=% meas_value=108
molecule="O=C(COC(=O)C1CC2C=CC1C2)Nc1ccc2c(c1)OC(F)(F)O2 (configuration not stated)" endpoint_unit=% meas_value=89.5
molecule=Cc1cc(C)n2nc(S(=O)(=O)N(C)c3ccccc3)nc2n1 endpoint_unit=% meas_value=102
molecule=Cc1ccc(S(=O)(=O)N2CCC(C(=O)N3CCN(Cc4ccccc4)CC3)CC2)cc1 endpoint_unit=% meas_value=91
molecule="COC(=O)CSC1=C(C#N)C(c2ccc(F)cc2)CC(=O)N1 (configuration not stated)" endpoint_unit=% meas_value=105
molecule=Oc1ccc(Cl)cc1-c1cc(-c2ccccc2)n[nH]1 endpoint_unit=% meas_value=61
molecule="Cc1cccc(C(=O)N2CCN(C(=O)c3cccc(C)c3)C(C)C2)c1 (configuration not stated)" endpoint_unit=% meas_value=116
molecule="Cc1ccc(C(c2sc3ncnn3c2O)N2CC(C)CC(C)C2)cc1 (configuration not stated)" endpoint_unit=% meas_value=102
molecule="CC1CCc2nn(CC(=O)NCc3ccc(F)cc3)cc2C1 (configuration not stated)" endpoint_unit=% meas_value=102
molecule="CCc1ccc(N2CC34C=CC(O3)C(C(=O)OC)C4C2=O)cc1 (configuration not stated)" endpoint_unit=% meas_value=104
molecule=CC(=O)NCC(=O)N(Cc1ccco1)C1(C(=O)NC2CCCCC2)CCCCC1 endpoint_unit=% meas_value=93
molecule=COc1cc(NC(=O)c2nccnc2C(=O)O)cc(OC)c1 endpoint_unit=% meas_value=107
